FYI, the data here is from patent US7265096B2.

# test.name: Pharmacokinetics and intestinal exposure to gemcitabine after oral dosing in mice
# Assay type: in vivo
# condition.context: male, mouse, blood, po, 20 mg-eq. gemcitabine/kg; read-out: Fpo (oral bioavailability)
# Procedure: Blood samples (0.5 mL) were obtained by cardiac puncture from 4 animals at each time point (1, 5, 10, 15, 30, 45 minutes and 1, 2, 4, 6 and 24 hr post-dosing). […] Quenched blood samples were stored at −80° C. until analyzed. […] Sample vials were snap frozen in dry ice/acetone and stored at −80° C. until analyzed. […]
measure: bioavailability (%)
Respond with the bare value in %.

Sample Nc1ccn([C@@H]2O[C@H](CO)[C@@H](O)C2(F)F)c(=O)n1 [gemcitabine, 2′,2′-difluoro-2′-deoxycytidine] — what was its bioavailability? 20
